These measurements were taken from ChEMBL document CHEMBL4024727.

assay: Selectivity index, ratio of GI50 for human PANC1 cells to MIC for Mycobacterium tuberculosis H37Ra ATCC 25177 dormant stage; type: toxicity; conditions: PANC-1 cells, read-out: Selectivity Index
Reported values of selectivity ratio for individual entries

Some entries whose results are on file:
smiles_data=Cc1nc(-c2ccccc2)oc1-c1csc(-c2ccccc2)n1 observed_value=9
smiles_data=Cc1nc(-c2ccc(F)cc2)oc1-c1csc(Cc2cccc(Cl)c2)n1 observed_value=88
smiles_data=Cc1nc(-c2ccc(F)cc2)oc1-c1csc(Cc2ccc(F)cc2)n1 observed_value=391

[ask] selectivity ratio lookup needed for Cc1nc(-c2ccccc2)oc1-c1csc(Cc2cccc(Cl)c2)n1 , thanks.
[reply] 195

[ask] selectivity ratio lookup needed for Cc1nc(-c2ccccc2)oc1-c1csc(Cc2ccc(Cl)cc2)n1 , thanks.
[reply] 95

[ask] selectivity ratio lookup needed for Cc1nc(-c2ccc(F)cc2)oc1-c1csc(Cc2ccccc2)n1 , thanks.
[reply] 115

---

test system: Staphylococcus aureus; experiment: Growth inhibition of Staphylococcus aureus NCIM 2602 at 1 ug/ml measured after 12 hrs relative to control; type: functional; settings: NCIM 2602, 12 h, read-out: GI
The label depends only on inhibition of growth at 1 µg/mL: criterion met if it is at least 70%, criterion not met if it is smaller.

smiles_data=Cc1nc(-c2ccccc2)oc1-c1csc(-c2ccc(F)cc2)n1 system_under_test="Staphylococcus aureus" discrete_label="criterion not met"
smiles_data=Cc1ccc(-c2nc(-c3oc(-c4ccccc4)nc3C)cs2)cc1 system_under_test="Staphylococcus aureus" discrete_label="criterion not met"
smiles_data=Cc1nc(-c2ccc(F)cc2)oc1-c1csc(-c2cccc(Cl)c2)n1 system_under_test="Staphylococcus aureus" discrete_label="criterion not met"
smiles_data=Cc1nc(-c2ccccc2)oc1-c1csc(Cc2cccc(Cl)c2)n1 system_under_test="Staphylococcus aureus" discrete_label="criterion met"
smiles_data=Cc1nc(-c2ccccc2)oc1-c1csc(-c2ccc(Br)cc2)n1 system_under_test="Staphylococcus aureus" discrete_label="criterion not met"

API: the following record is the query input.
[ask] # check: inhibition of growth at 1 µg/mL of Cc1nc(-c2ccc(F)cc2)oc1-c1csc(Cc2ccc(Cl)cc2)n1 is greater than or equal to 70%
[reply] criterion not met

---

test system: Escherichia coli; assay: Growth inhibition of Escherichia coli NCIM 2576 at 10 ug/ml measured after 8 hrs relative to control; format: functional; conditions: NCIM 2576, 8 h, read-out: GI
readout label: inhibition of growth at 10 µg/mL

smiles_data=Cc1nc(-c2ccc(F)cc2)oc1-c1csc(-c2ccccc2)n1 observed_value=47.8%
smiles_data=Cc1nc(-c2ccccc2)oc1-c1csc(-c2ccc(F)c(Cl)c2)n1 observed_value=74.3%
smiles_data=Cc1nc(-c2ccc(F)cc2)oc1-c1csc(Cc2ccc(Cl)cc2)n1 observed_value=16.1%
smiles_data=Cc1nc(-c2ccccc2)oc1-c1csc(-c2ccccc2)n1 observed_value=94.2%
smiles_data=Cc1nc(-c2ccc(F)cc2)oc1-c1csc(Cc2cccc(Cl)c2)n1 observed_value=86.1%

[ask] inhibition of growth at 10 µg/mL lookup needed for Cc1nc(-c2ccccc2)oc1-c1csc(-c2ccc(F)cc2)n1 , thanks.
[reply] 47.2%

[ask] inhibition of growth at 10 µg/mL lookup needed for Cc1nc(-c2ccccc2)oc1-c1csc(-c2ccc(Br)cc2)n1 , thanks.
[reply] 79.1%

[ask] inhibition of growth at 10 µg/mL lookup needed for Cc1nc(-c2ccccc2)oc1-c1csc(Cc2ccc(Cl)cc2)n1 , thanks.
[reply] 84.5%

[ask] inhibition of growth at 10 µg/mL lookup needed for Cc1nc(-c2ccccc2)oc1-c1csc(-c2ccc(Cl)cc2)n1 , thanks.
[reply] 25.3%

[ask] inhibition of growth at 10 µg/mL lookup needed for Cc1nc(-c2ccc(F)cc2)oc1-c1csc(-c2ccc(F)c(Cl)c2)n1 , thanks.
[reply] 55.9%

[ask] inhibition of growth at 10 µg/mL lookup needed for Cc1nc(-c2ccc(F)cc2)oc1-c1csc(Cc2ccccc2)n1 , thanks.
[reply] 90.3%

[ask] inhibition of growth at 10 µg/mL lookup needed for Cc1ccc(-c2nc(-c3oc(-c4ccc(F)cc4)nc3C)cs2)cc1 , thanks.
[reply] 10.5%

---

test: Selectivity index, ratio of GI50 for human HeLa cells to MIC for Mycobacterium bovis BCG ATCC 35743 dormant stage; assay type: toxicity, cell-based; settings: read-out: Selectivity Index
Threshold check on selectivity ratio: strictly below 60 is Yes; on or above 60 is No.

Solved entries (count: 5):
smiles_data=Cc1nc(-c2ccccc2)oc1-c1csc(Cc2cccc(Cl)c2)n1 discrete_label=Yes
smiles_data=Cc1nc(-c2ccc(F)cc2)oc1-c1csc(Cc2cccc(Cl)c2)n1 discrete_label=No
smiles_data=Cc1nc(-c2ccccc2)oc1-c1csc(Cc2ccc(Cl)cc2)n1 discrete_label=Yes
smiles_data=Cc1nc(-c2ccccc2)oc1-c1csc(-c2ccccc2)n1 discrete_label=Yes
smiles_data=Cc1nc(-c2ccc(F)cc2)oc1-c1csc(Cc2ccccc2)n1 discrete_label=Yes

[ask] Check if selectivity ratio falls below 60 for Cc1nc(-c2ccc(F)cc2)oc1-c1csc(Cc2ccc(F)cc2)n1 .
[reply] No

---

test system: Bacillus subtilis; experiment: Growth inhibition of Bacillus subtilis NCIM 2162 at 1 ug/ml measured after 12 hrs relative to control; format: functional; details: NCIM 2162, 12 h, read-out: GI
Reported values of inhibition of growth at 1 µg/mL for individual entries
Give a bare numeral; the unit % is implied.

Some entries whose results are on file:
compound=Cc1nc(-c2ccccc2)oc1-c1csc(-c2ccccc2)n1 system_under_test="Bacillus subtilis" endpoint_unit=% observed_value=91.3
compound=Cc1nc(-c2ccccc2)oc1-c1csc(-c2ccc(Cl)cc2)n1 system_under_test="Bacillus subtilis" endpoint_unit=% observed_value=14.9
compound=Cc1nc(-c2ccc(F)cc2)oc1-c1csc(Cc2ccc(Cl)cc2)n1 system_under_test="Bacillus subtilis" endpoint_unit=% observed_value=9.95
compound=Cc1ccc(-c2nc(-c3oc(-c4ccccc4)nc3C)cs2)cc1 system_under_test="Bacillus subtilis" endpoint_unit=% observed_value=3.92
compound=Cc1nc(-c2ccccc2)oc1-c1csc(Cc2cccc(Cl)c2)n1 system_under_test="Bacillus subtilis" endpoint_unit=% observed_value=80.3
compound=Cc1ccc(-c2nc(-c3oc(-c4ccc(F)cc4)nc3C)cs2)cc1 system_under_test="Bacillus subtilis" endpoint_unit=% observed_value=7.61

[ask] // lookup inhibition of growth at 1 µg/mL | system=Bacillus subtilis | key= Cc1nc(-c2ccc(F)cc2)oc1-c1csc(Cc2cccc(Cl)c2)n1
[reply] 79.7

[ask] // lookup inhibition of growth at 1 µg/mL | system=Bacillus subtilis | key= Cc1nc(-c2ccccc2)oc1-c1csc(-c2ccc(Br)cc2)n1
[reply] 65

[ask] // lookup inhibition of growth at 1 µg/mL | system=Bacillus subtilis | key= Cc1nc(-c2ccccc2)oc1-c1csc(-c2ccc(F)c(Cl)c2)n1
[reply] 62

[ask] // lookup inhibition of growth at 1 µg/mL | system=Bacillus subtilis | key= CC1(C)S[C@@H]2[C@H](NC(=O)[C@H](N)c3ccccc3)C(=O)N2[C@H]1C(=O)O [AMPICILLIN]
[reply] 90

[ask] // lookup inhibition of growth at 1 µg/mL | system=Bacillus subtilis | key= Cc1nc(-c2ccccc2)oc1-c1csc(-c2cccc(Cl)c2)n1
[reply] 24.8

[ask] // lookup inhibition of growth at 1 µg/mL | system=Bacillus subtilis | key= Cc1nc(-c2ccc(F)cc2)oc1-c1csc(-c2ccc(F)c(Cl)c2)n1
[reply] 41.2

[ask] // lookup inhibition of growth at 1 µg/mL | system=Bacillus subtilis | key= Cc1nc(-c2ccccc2)oc1-c1csc(Cc2ccc(Cl)cc2)n1
[reply] 74.2

[ask] // lookup inhibition of growth at 1 µg/mL | system=Bacillus subtilis | key= Cc1nc(-c2ccc(F)cc2)oc1-c1csc(-c2ccc(Cl)cc2)n1
[reply] 4.2

[ask] // lookup inhibition of growth at 1 µg/mL | system=Bacillus subtilis | key= Cc1nc(-c2ccccc2)oc1-c1csc(-c2ccc(F)cc2)n1
[reply] 37.7

[ask] // lookup inhibition of growth at 1 µg/mL | system=Bacillus subtilis | key= Cc1nc(-c2ccc(F)cc2)oc1-c1csc(Cc2ccc(F)cc2)n1
[reply] 83.5

[ask] // lookup inhibition of growth at 1 µg/mL | system=Bacillus subtilis | key= Cc1nc(-c2ccc(F)cc2)oc1-c1csc(-c2cccc(Cl)c2)n1
[reply] 28.8

[ask] // lookup inhibition of growth at 1 µg/mL | system=Bacillus subtilis | key= Cc1nc(-c2ccc(F)cc2)oc1-c1csc(-c2ccc(F)cc2)n1
[reply] 40.5

[ask] // lookup inhibition of growth at 1 µg/mL | system=Bacillus subtilis | key= Cc1nc(-c2ccc(F)cc2)oc1-c1csc(Cc2ccccc2)n1
[reply] 91.2

[ask] // lookup inhibition of growth at 1 µg/mL | system=Bacillus subtilis | key= Cc1nc(-c2ccc(F)cc2)oc1-c1csc(-c2ccccc2)n1
[reply] 21

[ask] // lookup inhibition of growth at 1 µg/mL | system=Bacillus subtilis | key= Cc1nc(-c2ccc(F)cc2)oc1-c1csc(-c2ccc(Br)cc2)n1
[reply] 46.5
